Experiment: Solubility of the compound in simulated intestinal fluid compliant with Japanese pharmacopeia
Format: ADME

>  <CHEM SMILES>
O=C(Nc1ccc(OC(F)(F)F)cc1)N1CCOC2(CCN(C(=O)c3c[nH]nc3C3CC3)CC2)C1

>  <solubility (µg/mL)>
92

$$$$
>  <CHEM SMILES>
O=C(Nc1ccc(C(F)(F)F)cc1)N1CCOC2(CCN(C(=O)c3ccccc3)CC2)C1

>  <solubility (µg/mL)>
63

$$$$
>  <CHEM SMILES>
O=C(Cc1ccccn1)N1CCC2(CC1)CN(C(=O)Nc1ccc(OC(F)(F)F)cc1)CCO2

>  <solubility (µg/mL)>
90

$$$$
>  <CHEM SMILES>
COc1ccccc1CC(=O)N1CCC2(CC1)CN(C(=O)Nc1ccc(OC(F)(F)F)cc1)CCO2

>  <solubility (µg/mL)>
59

$$$$
>  <CHEM SMILES>
O=C(Nc1ccc(OC(F)(F)F)cc1)N1CCOC2(CCN(C(=O)c3cc(Cl)ccn3)CC2)C1

>  <solubility (µg/mL)>
89

$$$$
>  <CHEM SMILES>
Cc1cc(C(=O)N2CCC3(CC2)CN(C(=O)Nc2ccc(OC(F)(F)F)cc2)CCO3)no1

>  <solubility (µg/mL)>
83

$$$$
>  <CHEM SMILES>
Cc1cnc(C(=O)N2CCC3(CC2)CN(C(=O)Nc2ccc(OC(F)(F)F)cc2)CCO3)cn1

>  <solubility (µg/mL)>
92

$$$$
>  <CHEM SMILES>
O=C(Nc1ccc(C(F)(F)F)cc1)N1CCOC2(CCN(C(=O)c3ccco3)CC2)C1

>  <solubility (µg/mL)>
75

$$$$
>  <CHEM SMILES>
O=C(Nc1ccc(OC(F)(F)F)cc1)N1CCOC2(CCN(C(=O)C3(c4ccccc4)CC3)CC2)C1

>  <solubility (µg/mL)>
33

$$$$
>  <CHEM SMILES>
O=C(Nc1ccc(OC(F)(F)F)cc1)N1CCOC2(CCN(C(=O)c3cnoc3C3CC3)CC2)C1

>  <solubility (µg/mL)>
89

$$$$
>  <CHEM SMILES>
N#Cc1ccc(C(=O)N2CCC3(CC2)CN(C(=O)Nc2ccc(C(F)(F)F)cc2)CCO3)cc1

>  <solubility (µg/mL)>
82

$$$$
>  <CHEM SMILES>
O=C(Nc1ccc(C(F)(F)F)cc1)N1CCOC2(CCN(C(=O)c3ccccn3)CC2)C1

>  <solubility (µg/mL)>
83

$$$$
>  <CHEM SMILES>
O=C(Nc1ccc(C(F)(F)F)cc1)N1CCOC2(CCN(C(=O)c3ccccc3Cl)CC2)C1

>  <solubility (µg/mL)>
12

$$$$
